These measurements were taken from patent US20230157289A1.

Let's look at some compounds and their measured pest or weed control at 16 g/ha.
Test system: Setaria viridis
Assay: greenhouse post-emergence herbicidal test, SETVI
Type: in vivo
Settings: application rate 16 g/ha, SETVI, scale from 0 to 100, read-out: herbicidal activity
Description: The culture containers used were plastic flowerpots containing loamy sand with approximately 3.0% of humus as the substrate. The seeds of the test plants were sown separately for each species. […] Depending on the species, the test plants were kept at 10 - 25° C. or 20 - 35° C., respectively. […] During this time, the test plants were tended, and their response to the individual treatments was evaluated. […]

C=CCOC(=O)C(OC)Oc1ccccc1Oc1cc(-n2c(=O)cc(C(F)(F)F)n(C)c2=O)c(F)cc1Br (racemic) [example 4] = > 85%
COCCOC(=O)C(OC)Oc1ccccc1Oc1cc(-n2c(=O)cc(C(F)(F)F)n(C)c2=O)c(F)cc1Br (racemic) [example 6] = > 70%

# evaluate next
Could you tell me which pest or weed control at 16 g/ha is on file for C#CCOC(=O)C(OC)Oc1ccccc1Oc1cc(-n2c(=O)cc(C(F)(F)F)n(C)c2=O)c(F)cc1Br (racemic) [example 5] ?
> 85%
